All figures here come from PubChem BioAssay.

- method: CREB reporter modulators under forskolin, primary screen, cell-based, PC12, CRE-LacZ reporter, forskolin-stimulated (AID 1146);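 further: PC12 cells with 6xCRE LacZ reporter stimulated by forskolin 10 µM; beta-galactosidase reporter signal reflecting CREB driven transcription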
- recorded conditions: luminescence, 4.5 h, higher = more signal, called active from +8 up or from −8 down
// label = Yes if z-score is not less than 0.2, otherwise No

• CO[C@@H]1COC(=O)CC=C[C@@H](C)[C@@H]2C=C[C@H](O)[C@@H](COC(=O)[C@H](C)NC(=O)CC=C[C@H]1C)O2 = No
• CCOC(=O)CCN1C(=O)[C@H]2[C@H]3[C@H](O)C=CC(=O)[C@@H]3CC[C@H]2C1=O = No
• COc1ccc(O[C@@H]2[C@H](O)CO[C@H]2C=CC#Cc2ccccc2)cc1 = Yes
• C=C(CCCC)C(=O)CC[C@@H](OC(C)=O)c1cccc(OCCO)c1 = Yes
• CCOC(=O)[C@H](Cc1ccccc1)NC(=O)CCC1CC(OC(=O)NCc2ccc3c(c2)OCO3)CC2(CCCC(COC(=O)NCC3CCCCC3)O2)O1 (stereo not given in full) = No
